System: MDA-MB-231
run description: Antiproliferative activity against human MDA-MB-231 cells by MTT assay
Assay type: functional, cell-based
test readout: IC50

These solved cases illustrate the format of a correct answer.
1) Cc1ccc2c(c1)C(C)(C)[C@H]1COc3ccc4c(=O)c(-c5ccccc5)c(C)oc4c3[C@H]1N2 | > 100 µM
2) Cc1oc2c3c(ccc2c(=O)c1C)OC[C@H]1[C@@H]3Nc2cc3ccccc3cc2C1(C)C | > 100 µM
3) CC/C(=C(\c1ccccc1)c1ccc(OCCN(C)C)cc1)c1ccccc1 [TAMOXIFEN] | 0.66 µM

Here's the next entry for you.
Task item: Report IC50 for Cc1ccc2c(c1)C(C)(C)[C@H]1COc3ccc4c(=O)c(C)c(C)oc4c3[C@H]1N2 please.
Reply: > 100 µM
